assay: solubility in water; details: 25 °C, pH 0, aqueous buffer
Measured parameter: solubility

Would you kindly share the measured solubility for Cc1ccc(C(=O)O)cc1 ?
≤ 100 µg/mL

----------
assay: solubility in water; conditions: 25 °C, pH 7, aqueous buffer
Measured parameter: solubility

Can you share its solubility? I mean this compound: CC1C(O)CC(O)(C(=O)O)CC1O (stereo not shown)
≥ 50 mg/mL
